# STUDY SYSTEM: cGMP-PDE prepared from the swine aeorta (Sus scrofa, UniProt A0A287B475)
pIC50: −log10 of the molar value. Where a name gives a salt, the structure may show the parent alone.
Values of pIC50 greater than or equal to 8 map to y; values below map to n.

>>> class_name("COc1ccc(CNc2nc(N3CCC(C(=O)O)CC3)nc3ccc(C#N)cc23)cc1Cl")
"y"
>>> class_name("Clc1ccc2nc(-n3ccnc3)n(Cc3ccc4c(c3)OCO4)c2c1")
"n"
>>> class_name("Clc1ccc2nc(-n3ccnc3)nc(NCc3ccc4c(c3)OCO4)c2c1")
"n"
>>> class_name("COc1cc2c(NCc3cc4c(cc3Cl)OCO4)ncnc2c(OC)c1OC")
"n"
>>> class_name("O=C(O)C1CCN(c2nc3ccc(Cl)cc3n2Cc2ccc3c(c2)OCO3)CC1")
"n"
>>> class_name("COc1ccc(CNc2nc(N3CCOCC3)nc3ccc(C#N)cc23)cc1Cl")
"y"
>>> class_name("O=C(O)c1nc(NCc2ccc3c(c2)OCO3)c2cc(Cl)ccc2n1")
"n"
>>> class_name("COc1ccc(CNc2ncnc3c(OC)c(OC)c(OC)cc23)cc1")
"n"
>>> class_name("N#Cc1ccc2ncnc(NCc3ccc4nc[nH]c4c3)c2c1")
"n"
>>> class_name("COc1ccc2nc(CO)nc(NCc3ccc4c(c3)OCO4)c2c1")
"n"
>>> class_name("CCN(Cc1ccc2c(c1)OCO2)c1ncnc2c(OC)c(OC)c(OC)cc12")
"n"
>>> class_name("COc1ccc2nc(OCc3ccccc3)nc(NCc3ccc4c(c3)OCO4)c2c1")
"n"
>>> class_name("CNC(=O)Nc1nc(NCc2ccc3c(c2)OCO3)c2cc(Cl)ccc2n1")
"y"
>>> class_name("COc1cc2c(NCc3ccc4c(c3)OCCO4)ncnc2c(OC)c1OC")
"n"
>>> class_name("CCOC(=O)C1CCN(c2nc(NCc3ccc4c(c3)OCO4)c3cc(Cl)ccc3n2)CC1 [Example 206, hydrochloride]")
"n"
>>> class_name("OCCN(CCO)c1nc(NCc2ccc3c(c2)OCO3)c2cc(Cl)ccc2n1")
"n"
>>> class_name("Nc1cc(CNc2ncnc3ccc(Cl)cc23)ccc1Cl")
"n"
>>> class_name("O=C(O)C1CCN(c2nc(NCc3ccc4c(c3)OCO4)c3cc(Br)ccc3n2)CC1")
"n"
>>> class_name("OCCNc1nc(NCc2ccc3c(c2)OCO3)c2cc(Cl)ccc2n1")
"n"
>>> class_name("COc1ccc(CNc2nc(N3CCC(C(=O)O)CC3)nc3c(OC)c(OC)c(OC)cc23)cc1Cl")
"n"
>>> class_name("C/C(=C/c1nc(NCc2ccc3c(c2)OCO3)c2cc(Cl)ccc2n1)C(=O)O")
"n"
>>> class_name("COc1ccc2ncnc(NCc3ccc4c(c3)OCO4)c2c1OC")
"n"
>>> class_name("COc1cc2c(NC(C)c3ccc4c(c3)OCO4)ncnc2c(OC)c1OC (stereo not shown)")
"n"
>>> class_name("O=C(O)C1CCN(c2nc(NCc3ccc4c(c3)OCO4)c3cccnc3n2)CC1")
"n"
>>> class_name("NC(=O)c1nc(NCc2ccc3c(c2)OCO3)c2cc(Cl)ccc2n1")
"y"

Sourced from patent US5801180A
